- SYSTEM_TESTED: Histone-lysine N-methyltransferase EZH1 (Homo sapiens, UniProt Q92800)
- Sequence (Q92800 whole entry): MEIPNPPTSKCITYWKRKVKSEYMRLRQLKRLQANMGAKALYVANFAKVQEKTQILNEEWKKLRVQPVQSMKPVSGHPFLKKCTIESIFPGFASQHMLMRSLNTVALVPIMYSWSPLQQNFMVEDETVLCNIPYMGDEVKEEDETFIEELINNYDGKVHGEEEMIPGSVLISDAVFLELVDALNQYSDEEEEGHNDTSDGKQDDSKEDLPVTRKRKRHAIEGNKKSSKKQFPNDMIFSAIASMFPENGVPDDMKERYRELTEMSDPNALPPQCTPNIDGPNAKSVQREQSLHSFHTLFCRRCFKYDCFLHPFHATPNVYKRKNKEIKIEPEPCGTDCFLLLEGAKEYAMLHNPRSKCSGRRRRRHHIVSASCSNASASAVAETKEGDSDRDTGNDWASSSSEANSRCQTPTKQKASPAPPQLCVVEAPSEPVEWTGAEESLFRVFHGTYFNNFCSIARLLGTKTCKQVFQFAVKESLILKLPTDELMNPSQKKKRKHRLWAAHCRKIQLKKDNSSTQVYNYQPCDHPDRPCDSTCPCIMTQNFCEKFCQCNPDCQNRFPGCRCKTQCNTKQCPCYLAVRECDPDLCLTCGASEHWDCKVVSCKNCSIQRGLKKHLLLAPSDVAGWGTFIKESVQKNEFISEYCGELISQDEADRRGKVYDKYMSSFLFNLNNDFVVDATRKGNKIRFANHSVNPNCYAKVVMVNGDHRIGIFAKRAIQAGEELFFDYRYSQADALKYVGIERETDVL
- PROCEDURE_SUMMARY: Inhibition of EZH1 histone methyltransferase activity of EZH1/EED/SUZ12/RBBP4/AEBP2 protein complex (unknown origin) using histone H3 peptide as substrate (21 to 44 residues) in presence of [3H]-S-adenosylmethionine after 2 hrs by scintillation proximity assay
MEASUREMENT_NAME: IC50

[[record]]
compound = "Cc1[nH]c(=O)c(CNC(=O)c2cc(-c3ccc(N4CCN(C(C)C)CC4)nc3)cc3c2cnn3C(C)C)c2c1CCCC2"
observed_value = "> 2.5 µM"

[[record]]
compound = "Cc1cc(CC(C)C)c(CNC(=O)c2cc(-c3ccc(N4CCN(C(C)C)CC4)nc3)cc3c2cnn3C(C)C)c(=O)[nH]1"
observed_value = "0.211 µM"

[[record]]
compound = "Cc1[nH]c(=O)c(CNC(=O)c2cc(-c3ccc(N4CCN(C(C)C)CC4)nc3)cc3c2cnn3C(C)C)c(C)c1C"
observed_value = "> 5 µM"

[[record]]
compound = "CCCc1cc(C)[nH]c(=O)c1CNC(=O)c1nn(C(C)C)c2cc(-c3ccc(N4CCN(C(C)C)CC4)nc3)ccc12"
observed_value = "> 5 µM"

[[record]]
compound = "CCCc1cc(C)[nH]c(=O)c1CNC(=O)c1cc(-c2ccc(N3CCN(C(C)C)CC3)nc2)cc2c1cnn2Cc1ccccc1"
observed_value = "> 5 µM"

[[record]]
compound = "Cc1cc(C2CCCC2)c(CNC(=O)c2cc(-c3ccc(N4CCN(C(C)C)CC4)nc3)cc3c2cnn3C(C)C)c(=O)[nH]1"
observed_value = "0.086 µM"

[[record]]
compound = "CC(C)N1CCN(c2ccc(-c3cc(C(=O)NCc4ccc[nH]c4=O)c4cnn(C(C)C)c4c3)cn2)CC1"
observed_value = "> 5 µM"

[[record]]
compound = "Cc1cc(C(C)(C)C)[nH]c(=O)c1CNC(=O)c1cc(-c2ccc(N3CCN(C(C)C)CC3)nc2)cc2c1cnn2C(C)C"
observed_value = "> 10 µM"

[[record]]
compound = "CCCc1cc(C)[nH]c(=O)c1CNC(=O)c1cc(-c2ccc(N3CCN(C(C)C)CC3)nc2)cc2c1cnn2C"
observed_value = "> 2.5 µM"

[[record]]
compound = "CCC(C)c1cc(C)c(CNC(=O)c2cc(-c3ccc(N4CCN(C(C)C)CC4)nc3)cc3c2cnn3C(C)C)c(=O)[nH]1 (configuration not stated)"
observed_value = "> 1.25 µM"

[[record]]
compound = "CCCc1cc(C)[nH]c(=O)c1CNC(=O)c1cc(-c2ccc(C(F)(F)F)cn2)cc2c1cnn2C(C)C"
observed_value = "> 5 µM"

[[record]]
compound = "CCCc1cc(C)[nH]c(=O)c1CNC(=O)c1cc(C2CCNCC2)cc2c1cnn2C(C)C"
observed_value = "0.613 µM"

[[record]]
compound = "CCCc1cc(C)[nH]c(=O)c1CNC(=O)c1cc(-c2ccc(N3CCN(C(C)C)CC3)nc2)c2cnn(C(C)C)c2c1"
observed_value = "> 5 µM"

[[record]]
compound = "CCCc1cc(C)[nH]c(=O)c1CNC(=O)c1cc(-c2ccccn2)cc2c1cnn2C(C)C"
observed_value = "0.681 µM"

[[record]]
compound = "CCCc1cc(C)[nH]c(=O)c1CNC(=O)c1cc(N2CCNCC2)cc2c1cnn2C(C)C"
observed_value = "0.88 µM"

[[record]]
compound = "CCCc1cc(C)[nH]c(=O)c1CNC(=O)c1nn(C(C)C)c2ccc(-c3ccc(N4CCN(C(C)C)CC4)nc3)cc12"
observed_value = "> 5 µM"

[[record]]
compound = "CCCc1cc(C)[nH]c(=O)c1CNC(=O)c1cc(-c2ccc(N3CCN(C(C)C)CC3)nc2)cc2nn(C(C)C)cc12"
observed_value = "> 2.5 µM"

[[record]]
compound = "CCc1cc(C)c(CNC(=O)c2cc(-c3ccc(N4CCN(C(C)C)CC4)nc3)cc3c2cnn3C(C)C)c(=O)[nH]1"
observed_value = "> 5 µM"

[[record]]
compound = "CCCc1cc(C)[nH]c(=O)c1CNC(=O)c1cc(-c2ccc(N3CCN(C(C)C)CC3)nc2)cc2c1cnn2CC1CCCCC1"
observed_value = "> 2.5 µM"

[[record]]
compound = "CCCc1cc(C)[nH]c(=O)c1CNC(=O)c1cc(-c2ccc(N3CCN(C(C)C)CC3)nc2)cc2c1cnn2C(C)(C)C"
observed_value = "0.127 µM"

[[record]]
compound = "Cc1ncc(CNC(=O)c2cc(-c3ccc(N4CCN(C(C)C)CC4)nc3)cc3c2cnn3C(C)C)c(=O)[nH]1"
observed_value = "> 10 µM"

[[record]]
compound = "CCCc1cc(C)[nH]c(=O)c1CNC(=O)c1cc(Br)cc2c1cnn2C(C)C"
observed_value = "> 5 µM"

[[record]]
compound = "CCCc1cc(C)[nH]c(=O)c1CNC(=O)c1cc(NC2CCNCC2)cc2c1cnn2C(C)C"
observed_value = "> 1.25 µM"

[[record]]
compound = "CCc1cc(C)[nH]c(=O)c1CNC(=O)c1cc(-c2ccc(N3CCN(C(C)C)CC3)nc2)cc2c1cnn2C(C)C"
observed_value = "0.81 µM"

[[record]]
compound = "CCCc1cc(C)[nH]c(=O)c1CNC(=O)c1cc(-c2ccc(F)cc2)cc2c1cnn2C(C)C"
observed_value = "> 1.25 µM"

[[record]]
compound = "CCCc1cc(C)[nH]c(=O)c1CNC(=O)c1cc(-c2ccc(N3CCN(CC)CC3)nc2)cc2c1cnn2C(C)C"
observed_value = "0.088 µM"

[[record]]
compound = "CCCc1cc(C)[nH]c(=O)c1CNC(=O)c1cc(-c2ccc(N3CCN(C(C)C)CC3)nc2)cc2c1cnn2CC1CCC1"
observed_value = "> 2.5 µM"

[[record]]
compound = "Cc1cc(-c2ccccc2)[nH]c(=O)c1CNC(=O)c1cc(-c2ccc(N3CCN(C(C)C)CC3)nc2)cc2c1cnn2C(C)C"
observed_value = "> 10 µM"

[[record]]
compound = "CCCCc1cc(C)[nH]c(=O)c1CNC(=O)c1cc(-c2ccc(N3CCN(C(C)C)CC3)nc2)cc2c1cnn2C(C)C"
observed_value = "0.16 µM"

[[record]]
compound = "Cc1[nH]c(=O)[nH]c(=O)c1CNC(=O)c1cc(-c2ccc(N3CCN(C(C)C)CC3)nc2)cc2c1cnn2C(C)C"
observed_value = "> 10 µM"

[[record]]
compound = "CCCc1cc(C)[nH]c(=O)c1CNC(=O)c1cc(-c2ccc(N3CCN(C(C)C)CC3)nc2)cc2c1cnn2CCC1CCCCC1"
observed_value = "> 2.5 µM"

[[record]]
compound = "CCCc1cc(C)[nH]c(=O)c1CNC(=O)c1cc(-c2ccc(N3CCN(C(C)C)CC3)nc2)cc2c1cnn2C1CCCC1"
observed_value = "0.108 µM"


Origin of values: ChEMBL document CHEMBL4477241
